The origin of these recorded values is PubChem BioAssay AID306.

system: BDF1 mice, L1210 Methyl-GAG-resistant leukemia, survival T/C; assay: NCI In Vivo Anticancer Drug Screen. Data for tumor model L1210 Leukemia resistant to Methyl-GAG; NSC 32946 (subcutaneous) in B6D2F1 (BDF1) mice; conditions: endpoint: mean survival time; dose: 25.0 mg/kg/injection; schedule: Q01DX Z (ip); vehicle: carboxymethylcellulose (CMC); higher = longer survival
Toxic doses and inconclusive results are not listed.
The following molecules are listed with their measured T/C values.
assayReadout: T/C

1) O=c1[nH]c(=O)n(C2CC(O)C(CO)O2)cc1F (configuration not stated)	112 % of control
2) CN(C)c1ccc(Nc2c3ccccc3nc3ccccc23)cc1	115 % of control
3) CS(=O)(=O)OCCCl	96 % of control
4) C[n+]1c2ccccc2nc2c(N)cc(N)cc21	104 % of control
5) O=C1C(NC(=O)C2CCCCC2)=C(N2CC2)C(=O)C(NC(=O)C2CCCCC2)=C1N1CC1	100 % of control
6) CC(=O)Nc1ccc2nc3ccc(NC(C)=O)cc3[n+](-c3ccccc3)c2c1	97 % of control
7) C[C@@H]1C[C@H]2CC[C@H](O2)[C@H](C)C(=O)O[C@@H](C)C[C@@H]2CC[C@@H](O2)[C@@H](C)C(=O)O[C@H](C)C[C@H]2CC[C@H](O2)[C@H](C)C(=O)O[C@@H](C)C[C@@H]2CC[C@@H](O2)[C@@H](C)C(=O)O1	97 % of control
8) N#CCSc1ncnc2nc[nH]c12	110 % of control
9) CN(C)c1ccc(/C=C/c2ccnc3ccccc23)cc1	100 % of control
10) S=P(N1CCOCC1)(N1CC1)N1CC1	102 % of control
11) Cn1cnc([N+](=O)[O-])c1Sc1ncnc2nc[nH]c12	103 % of control
12) C[N+](C)(C)c1ncnc2nc[nH]c12	103 % of control
